Reported activity, negative = inhibition values follow for various compounds
Tested On: Cytochrome P450 3A4 (Homo sapiens) (UniProt P08684)
Sequence (P08684 whole entry, looked up): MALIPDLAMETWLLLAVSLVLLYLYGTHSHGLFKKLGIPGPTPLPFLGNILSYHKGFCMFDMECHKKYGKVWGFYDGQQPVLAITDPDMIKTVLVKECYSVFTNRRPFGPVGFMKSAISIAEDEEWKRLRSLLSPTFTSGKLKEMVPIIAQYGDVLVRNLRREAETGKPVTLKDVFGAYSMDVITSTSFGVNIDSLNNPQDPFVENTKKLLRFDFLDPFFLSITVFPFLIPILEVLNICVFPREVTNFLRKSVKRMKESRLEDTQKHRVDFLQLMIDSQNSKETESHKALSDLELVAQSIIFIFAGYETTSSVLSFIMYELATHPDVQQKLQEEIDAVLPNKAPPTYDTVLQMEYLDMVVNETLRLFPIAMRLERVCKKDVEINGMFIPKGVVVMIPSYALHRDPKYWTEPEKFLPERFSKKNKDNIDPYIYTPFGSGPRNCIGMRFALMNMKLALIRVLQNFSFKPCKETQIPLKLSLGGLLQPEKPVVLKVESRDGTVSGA
Method Summary: Cytochrome panel assay with activity outcomes; also: % is scaled to controls: 0 for no effect and ±100 for the full control effect
Particulars: recombinant CYP, pro-luciferin dealkylation, luminescence, p450-cyp3a4; series mostly up to 57.1 µM
Screen size: about 16,000 compounds; about 5,100 (32%) were called active. Roughly 25% stayed inconclusive and do not appear here. The list shows a part of the results.

Smiles Structure	activity, negative = inhibition
CCOc1c2ccc(C(=O)NCCCCc3ccccc3)cc2nn1CC	18.3% [at 2.29 µM] (inactive)
CC(=O)OC[C@H]1O[C@@H](O/N=C2/[C@H]3O[C@@H]3[C@@H](O)[C@H]3[C@H]2CCn2c(=O)n(-c4ccccc4)c(=O)n23)[C@H](OC(C)=O)[C@@H](OC(C)=O)[C@@H]1OC(C)=O	-17.4% [at 11.4 µM] (inactive)
O=C(N1CCOCC1)N1CCN(c2ccccc2)CC1	-14.3% [at 11.4 µM] (inactive)
O=C(O)[C@@H]1[C@@H](C(=O)NCc2ccccn2)[C@@H]2C=C[C@@H]1O2	-5.18% [at 11.4 µM] (inactive)
CN(C)CCCn1c2ccccc2c2cnccc21	-22.2% [at 11.4 µM] (inactive)
CC(C)(CO)N1CCN(C(=S)Nc2ccccc2)CC1	-8.25% [at 11.4 µM] (inactive)
O=C(Nc1ccc2oc(=O)c(C(=O)O)cc2c1)Oc1ccccc1	-5.24% [at 11.4 µM] (inactive)
COc1ccc(/C=N/NC(=O)c2ccn[nH]2)cc1COc1ccc(F)cc1	-10.3% [at 2.29 µM] (inactive)
CCOc1c2ccc(C(=O)NCc3ccc(OC(F)(F)F)cc3)cc2nn1C	16.7% [at 2.29 µM] (inactive)
COCCn1nc2cc(C(=O)NCC34CC5CC(CC(C5)C3)C4)ccc2c1OC	-1.55% [at 2.29 µM] (inactive)
